subject-of-test: human Cav2.2 (Homo sapiens, UniProt Q00975)
Sequence (Q00975 whole entry): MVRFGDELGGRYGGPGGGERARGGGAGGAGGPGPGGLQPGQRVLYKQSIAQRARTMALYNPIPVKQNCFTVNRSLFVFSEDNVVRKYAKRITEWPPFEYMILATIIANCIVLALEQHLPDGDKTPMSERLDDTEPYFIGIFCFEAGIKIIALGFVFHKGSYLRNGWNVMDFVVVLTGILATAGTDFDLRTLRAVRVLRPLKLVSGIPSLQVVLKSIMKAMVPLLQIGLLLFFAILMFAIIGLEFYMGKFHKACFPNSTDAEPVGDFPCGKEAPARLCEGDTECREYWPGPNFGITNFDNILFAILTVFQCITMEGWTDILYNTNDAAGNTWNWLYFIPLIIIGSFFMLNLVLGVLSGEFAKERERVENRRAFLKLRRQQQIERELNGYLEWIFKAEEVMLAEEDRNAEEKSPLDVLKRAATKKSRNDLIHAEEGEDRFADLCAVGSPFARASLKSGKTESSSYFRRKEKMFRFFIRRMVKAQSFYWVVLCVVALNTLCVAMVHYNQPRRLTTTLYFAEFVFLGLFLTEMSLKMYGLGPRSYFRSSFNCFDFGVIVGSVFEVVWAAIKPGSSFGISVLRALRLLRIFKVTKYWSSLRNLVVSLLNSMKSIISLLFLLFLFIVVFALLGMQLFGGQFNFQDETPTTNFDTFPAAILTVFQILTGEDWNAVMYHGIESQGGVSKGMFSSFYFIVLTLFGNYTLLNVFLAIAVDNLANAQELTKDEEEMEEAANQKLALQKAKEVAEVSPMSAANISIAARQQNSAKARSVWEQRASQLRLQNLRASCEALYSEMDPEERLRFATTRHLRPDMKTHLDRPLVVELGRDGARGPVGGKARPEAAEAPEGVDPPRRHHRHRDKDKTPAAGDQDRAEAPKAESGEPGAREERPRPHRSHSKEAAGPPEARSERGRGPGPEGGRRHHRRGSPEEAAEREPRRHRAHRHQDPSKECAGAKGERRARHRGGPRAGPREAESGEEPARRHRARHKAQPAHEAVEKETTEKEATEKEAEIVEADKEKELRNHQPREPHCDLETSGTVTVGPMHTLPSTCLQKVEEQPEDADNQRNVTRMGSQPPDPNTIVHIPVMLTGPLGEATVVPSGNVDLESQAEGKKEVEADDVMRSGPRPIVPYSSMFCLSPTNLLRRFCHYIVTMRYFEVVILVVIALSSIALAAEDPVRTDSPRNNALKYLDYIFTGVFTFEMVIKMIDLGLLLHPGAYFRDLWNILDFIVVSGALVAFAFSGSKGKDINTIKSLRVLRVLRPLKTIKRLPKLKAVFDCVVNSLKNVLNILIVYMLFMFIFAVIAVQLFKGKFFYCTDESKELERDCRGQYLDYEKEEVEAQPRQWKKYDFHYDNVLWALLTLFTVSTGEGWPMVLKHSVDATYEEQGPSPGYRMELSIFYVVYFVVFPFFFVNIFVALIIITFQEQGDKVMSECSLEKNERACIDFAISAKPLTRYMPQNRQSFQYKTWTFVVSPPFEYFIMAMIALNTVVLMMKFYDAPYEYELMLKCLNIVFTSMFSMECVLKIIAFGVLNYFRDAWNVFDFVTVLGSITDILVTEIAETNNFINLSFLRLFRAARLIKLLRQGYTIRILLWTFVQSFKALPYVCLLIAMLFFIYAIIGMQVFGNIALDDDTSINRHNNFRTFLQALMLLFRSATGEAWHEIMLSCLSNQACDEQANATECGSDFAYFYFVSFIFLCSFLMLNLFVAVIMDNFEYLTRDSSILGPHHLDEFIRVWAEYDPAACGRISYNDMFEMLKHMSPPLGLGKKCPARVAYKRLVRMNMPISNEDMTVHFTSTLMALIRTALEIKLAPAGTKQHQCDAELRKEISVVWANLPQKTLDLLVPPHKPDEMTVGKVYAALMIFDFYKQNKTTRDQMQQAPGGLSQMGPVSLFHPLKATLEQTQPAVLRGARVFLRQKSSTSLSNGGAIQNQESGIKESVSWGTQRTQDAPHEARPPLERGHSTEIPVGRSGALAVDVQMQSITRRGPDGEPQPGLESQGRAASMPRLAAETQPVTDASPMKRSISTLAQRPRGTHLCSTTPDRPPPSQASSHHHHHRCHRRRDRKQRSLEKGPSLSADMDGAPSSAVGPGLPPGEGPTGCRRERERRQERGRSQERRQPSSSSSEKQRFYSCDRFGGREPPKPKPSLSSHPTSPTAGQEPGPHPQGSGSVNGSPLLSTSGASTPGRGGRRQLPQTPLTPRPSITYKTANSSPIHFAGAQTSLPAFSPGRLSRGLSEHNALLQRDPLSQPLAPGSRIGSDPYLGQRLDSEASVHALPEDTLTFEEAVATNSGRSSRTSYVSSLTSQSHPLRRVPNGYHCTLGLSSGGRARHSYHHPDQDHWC
Sequence (P54289 25-951 partner limits assumed): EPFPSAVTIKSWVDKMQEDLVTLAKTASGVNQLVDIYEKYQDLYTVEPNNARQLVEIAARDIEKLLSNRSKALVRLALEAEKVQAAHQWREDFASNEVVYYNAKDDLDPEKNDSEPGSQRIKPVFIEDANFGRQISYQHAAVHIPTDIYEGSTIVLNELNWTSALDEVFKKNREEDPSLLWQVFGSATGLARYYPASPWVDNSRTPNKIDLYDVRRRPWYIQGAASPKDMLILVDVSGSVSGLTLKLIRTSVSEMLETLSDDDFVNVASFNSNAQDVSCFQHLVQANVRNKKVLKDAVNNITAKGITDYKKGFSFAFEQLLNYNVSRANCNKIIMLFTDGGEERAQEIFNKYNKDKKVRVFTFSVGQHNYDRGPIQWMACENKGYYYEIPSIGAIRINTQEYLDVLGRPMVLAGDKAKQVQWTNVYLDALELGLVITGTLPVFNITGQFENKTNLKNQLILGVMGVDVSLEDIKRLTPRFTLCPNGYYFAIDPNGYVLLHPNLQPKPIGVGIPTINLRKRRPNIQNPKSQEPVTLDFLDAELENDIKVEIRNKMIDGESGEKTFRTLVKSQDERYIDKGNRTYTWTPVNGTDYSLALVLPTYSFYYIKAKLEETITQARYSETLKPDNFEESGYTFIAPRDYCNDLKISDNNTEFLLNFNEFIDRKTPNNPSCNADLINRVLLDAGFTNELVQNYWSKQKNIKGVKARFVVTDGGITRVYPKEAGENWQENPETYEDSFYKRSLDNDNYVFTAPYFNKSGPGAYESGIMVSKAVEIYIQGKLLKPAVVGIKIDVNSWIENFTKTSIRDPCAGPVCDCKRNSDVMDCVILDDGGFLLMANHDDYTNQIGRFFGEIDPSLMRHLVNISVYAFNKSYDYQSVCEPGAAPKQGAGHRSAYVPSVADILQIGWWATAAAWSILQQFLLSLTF
Sequence (P54289 952-1103 partner limits assumed): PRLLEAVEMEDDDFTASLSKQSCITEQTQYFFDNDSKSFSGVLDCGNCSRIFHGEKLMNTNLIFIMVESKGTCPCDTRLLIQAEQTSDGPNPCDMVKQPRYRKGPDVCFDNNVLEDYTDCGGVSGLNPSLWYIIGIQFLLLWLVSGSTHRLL
Sequence (P54284 whole entry partner): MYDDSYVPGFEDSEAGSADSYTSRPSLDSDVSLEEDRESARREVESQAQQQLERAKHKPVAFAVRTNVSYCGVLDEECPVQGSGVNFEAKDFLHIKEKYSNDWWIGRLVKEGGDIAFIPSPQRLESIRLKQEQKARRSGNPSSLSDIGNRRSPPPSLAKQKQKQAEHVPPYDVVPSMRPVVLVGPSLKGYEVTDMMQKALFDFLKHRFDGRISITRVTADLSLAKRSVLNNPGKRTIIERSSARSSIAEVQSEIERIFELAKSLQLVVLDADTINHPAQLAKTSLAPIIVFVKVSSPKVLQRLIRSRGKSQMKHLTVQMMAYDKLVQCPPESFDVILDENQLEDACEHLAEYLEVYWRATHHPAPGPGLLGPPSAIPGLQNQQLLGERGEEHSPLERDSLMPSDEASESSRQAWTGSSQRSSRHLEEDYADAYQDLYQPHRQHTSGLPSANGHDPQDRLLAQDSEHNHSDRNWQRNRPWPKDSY
assay: Assessment of calcium channel activity using FLIPR (Ca2+ influx in IMR32 cells)
condition-set: IMR32 cells endogenously expressing human Cav2.2; 60 minute pre-incubation; 2 μM nifedipine; depolarized with 80 mM KCl, 5 mM CaCl2
attribute-measured: IC50 (µM)

Answered examples (3):
INSERT INTO results (compound, subject_of_test, attribute_measured, units_label, test_result) VALUES
  ('O=C1N(Cc2nc(-c3cnccc3C(F)(F)F)no2)CCC1(c1ccccc1)c1ccccc1', 'human Cav2.2 (Homo sapiens, UniProt Q00975)', 'IC50', 'µM', 1.99),
  ('O=C(NC1CC1)c1cccc(S(=O)(=O)N2CCC(c3ccccc3)(c3ccccc3)C2=O)c1', 'human Cav2.2 (Homo sapiens, UniProt Q00975)', 'IC50', 'µM', 0.86),
  ('O=C(CN1CCCC(c2ccccc2)(c2ccccc2)C1=O)N1CCC(c2ccccc2)(c2ccccc2)C1', 'human Cav2.2 (Homo sapiens, UniProt Q00975)', 'IC50', 'µM', 2.43);

1 = O=C1N(CCCN2CCN(c3ncccn3)CC2)CCCC1(c1ccc(F)cc1)c1ccc(F)cc1
2 = O=C(CN1CCCC(c2ccccc2)(c2ccccc2)C1=O)N1CCN(Cc2cccc(C(F)(F)F)c2)CC1
q: // compare measured IC50 between 1 and 2 ; output the lower one // return label of chosen record
a: 2
(2: 0.93 µM, 1: 3.01 µM)

P = O=C(CN1CCCC(c2ccccc2)(c2ccccc2)C1=O)N1CCN(C(c2ccc(F)cc2)c2ccc(F)cc2)CC1
Q = O=C(CN1CCC(c2ccccc2)(c2ccccc2)C1=O)N1CCN(C(c2ccccc2)c2ccc(Cl)cc2)CC1 (stereo not shown)
q: Of the two listed items, which has the higher IC50? First: P Second: Q Give the chosen item's label as your response.
a: P
(P: 2.36 µM, Q: 1.01 µM)

P = O=C(CN1CCC(c2ccc(F)cc2)(c2ccc(F)cc2)C1=O)N1CCc2ccc(C(F)(F)F)cc2C1
Q = O=C(CN1CCCC(c2ccccc2)C1=O)N1Cc2ccc(C(F)(F)F)cc2C1 (stereo not shown)
q: Which of the two items, P and Q , has the greater recorded IC50? Selection: enter the item's label.
a: Q

I = O=C(CN1CCCC(c2ccccc2)(c2ccccc2)C1=O)N1CCCCC1c1ccc(F)cc1 (stereo not shown)
II = O=C1N(Cc2nc(-c3ccc(F)cc3)no2)CCC1(c1ccccc1)c1ccccc1
q: Given I and given II , which shows the smaller recorded IC50? Give the label under which the chosen entry appears.
a: I

---

subject-of-test: human Cav2.2 (Homo sapiens, UniProt Q00975)
assay: Assessment of calcium channel activity using FLIPR (Ca2+ influx in IMR32 cells)
condition-set: IMR32 cells endogenously expressing human Cav2.2; 60 minute pre-incubation; 2 μM nifedipine; depolarized with 80 mM KCl, 5 mM CaCl2
pIC50: −log10 of the molar value.
attribute-measured: pIC50

The following compounds have reported results that may help.
INSERT INTO results (compound, subject_of_test, attribute_measured, test_result) VALUES
  ('O=C(CN1CCC(c2ccc(F)cc2)C1=O)N1Cc2ccc(C(F)(F)F)cc2C1 (single isomer, unassigned; (+)) [Example 264]', 'human Cav2.2 (Homo sapiens, UniProt Q00975)', 'pIC50', 4.85),
  ('O=C1N(CCCN2CCN(c3cccc(C(F)(F)F)c3)CC2)CCCC1(c1ccc(F)cc1)c1ccc(F)cc1', 'human Cav2.2 (Homo sapiens, UniProt Q00975)', 'pIC50', 5.91);

I = CC(C)N1CCN(CC(=O)N2CCN(C(c3ccc(F)cc3)c3ccc(F)cc3)CC2)C(=O)C1c1ccccc1 (stereo not shown)
II = O=C(CN1CCC(c2ccccc2)(c2ccccc2)C1=O)NCCc1cccc(C(F)(F)F)c1
q: For the two items I and II , which reports the higher pIC50 value? Give the label under which the chosen entry appears.
a: I

---

subject-of-test: human Cav2.2 (Homo sapiens)
assay: Assessment of calcium channel activity using FLIPR (Ca2+ influx in IMR32 cells)
condition-set: IMR32 cells endogenously expressing human Cav2.2; 60 minute pre-incubation; 2 μM nifedipine; depolarized with 80 mM KCl, 5 mM CaCl2
attribute-measured: IC50 (µM)

INSERT INTO assay_data (molecule, test_result) VALUES
  ('N#Cc1ccc(C2CN(C(=O)CN3CCCC(c4ccccc4)(c4ccccc4)C3=O)C2)cc1 [Example 241]', 8.96);

A = O=C(CN1CCC(c2ccccc2)(c2ccccc2)C1=O)Nc1ncc(C(F)(F)F)cc1Cl [Example 249]
B = O=C(CN1CCC(c2ccccc2)(c2ccccc2)C1=O)Nc1cccc(C(F)(F)F)n1 [Example 247]
C = O=C(CN1CCCC(c2ccccc2)(c2ccccc2)C1=O)N1CCN(S(=O)(=O)c2cccc(C(F)(F)F)c2)CC1 [Example 84]
q: Order field: IC50 | Direction: descending (largest first) I would appreciate it if you listed the labels in the requested order.
a: A, B, C

---

subject-of-test: human Cav2.2 (Homo sapiens)
assay: Assessment of calcium channel activity using FLIPR (Ca2+ influx in IMR32 cells)
condition-set: IMR32 cells endogenously expressing human Cav2.2; 60 minute pre-incubation; 2 μM nifedipine; depolarized with 80 mM KCl, 5 mM CaCl2
pIC50: −log10 of the molar value.
attribute-measured: pIC50

Some entries whose results are on file:
INSERT INTO assay_data (compound, attribute_measured, test_result) VALUES
  ('O=C1N(CCN2CCN(c3ncccn3)CC2)CCCC1(c1ccccc1)c1ccccc1 [Example 134]', 'pIC50', 5.19),
  ('N#Cc1ccc(NC(=O)CN2CCC(c3ccc(F)cc3)(c3ccc(F)cc3)C2=O)nc1 [Example 252]', 'pIC50', 5.53),
  ('O=C1N(Cc2nc(-c3ccc(F)cc3)no2)CCCC1(c1ccccc1)c1ccccc1 [Example 100]', 'pIC50', 5.28);

P = O=C1N(Cc2nc(CCc3ccc(Cl)cc3)no2)CCCC1(c1ccccc1)c1ccccc1 [Example 213]
Q = O=C(CN1CCC(c2ccccc2)(c2ccccc2)C1=O)Nc1ccc(C(F)(F)F)cn1 [Example 246]
R = O=C(CN1CCCC(c2ccccc2)C1=O)Nc1ccc(Cl)cn1 (centres unmarked) [Example 192]
S = O=C(CN1CCC(c2ccccc2)(c2ccccc2)C1=O)NC1CCN(Cc2cccc(C(F)(F)F)c2)CC1 [Example 41]
T = O=C(CN1CCC(c2ccccc2)(c2ccccc2)C1=O)N1CCN(C(c2ccc(F)cc2)c2ccc(F)cc2)CC1 [Example 45]
q: Please give the order of these compounds when sorted by pIC50, largest value leading. Use the labels to give the requested order.
a: T, S, P, Q, R
(T: 6.37, S: 6.11, P: 5.80, Q: 5.42, R: 4.92)

---

subject-of-test: human Cav2.2 (Homo sapiens, UniProt Q00975)
assay: Assessment of calcium channel activity using FLIPR (Ca2+ influx in IMR32 cells)
condition-set: IMR32 cells endogenously expressing human Cav2.2; 60 minute pre-incubation; 2 μM nifedipine; depolarized with 80 mM KCl, 5 mM CaCl2
attribute-measured: IC50 (nM)

// solved cases for IC50 follow
INSERT INTO assay_data (molecule, units_label, test_result) VALUES
  ('O=C1N(Cc2nc(-c3ccc(C(F)(F)F)cc3)no2)CCCC1(c1ccccc1)c1ccccc1', 'nM', 8650),
  ('COc1cccc(C2(C(C)C)CCCN(CCCN(C)CCc3ccc(F)cc3)C2=O)c1 (stereo not shown)', 'nM', 1140);

A = COc1ccc(C2(c3ccc(OC)cc3)CCCN(CCN(C)CCCOc3cc(OC)cc(OC)c3)C2=O)cc1
B = O=C(CN1CCC(c2ccccc2)(c2ccccc2)C1=O)N1CCC(NCc2cccc(C(F)(F)F)c2)CC1
q: Min IC50? A | B Output the label that corresponds to your choice.
a: B
(B: 1130 nM, A: 3120 nM)

---

subject-of-test: human Cav2.2 (Homo sapiens)
assay: Assessment of calcium channel activity using FLIPR (Ca2+ influx in IMR32 cells)
condition-set: IMR32 cells endogenously expressing human Cav2.2; 60 minute pre-incubation; 2 μM nifedipine; depolarized with 80 mM KCl, 5 mM CaCl2
attribute-measured: IC50 (nM)

In the examples that follow, each entry is paired with its recorded IC50.
INSERT INTO measurements (molecule, test_result) VALUES
  ('O=C(CN1CCCC(c2ccc(F)cc2)(c2ccc(F)cc2)C1=O)N1CCC(c2ccccc2)(c2ccccc2)C1', 1770),
  ('O=C1N(Cc2nc(-c3ccc(Cl)cc3)no2)CCC1(c1ccccc1)c1ccccc1', 4670),
  ('COc1cccc(CCN(C)CCCN2CCCC(c3cccc(OC)c3)(C(C)C)C2=O)c1 (stereo not drawn)', 1120),
  ('O=C1N(Cc2nc(-c3ccc(Cl)cc3)no2)CCCC1(c1ccccc1)c1ccccc1', 6700),
  ('O=C1N(Cc2nc(CCc3ccccc3Cl)no2)CCCC1(c1ccccc1)c1ccccc1', 3390);

I = O=C1N(CCCN2CCN(c3cccc(C(F)(F)F)c3)CC2)CCCC1(c1ccccc1)c1ccccc1
II = O=C(CN1CCC(c2ccccc2)(c2ccccc2)C1=O)N1CCC(c2ccccc2)C1 (stereo not drawn)
q: Lowest IC50? choose I or II Field: selected label. Fill in the label of the entry you choose.
a: I
(I: 1250 nM, II: 1830 nM)

A = O=C1N(Cc2nc(-c3ccc(Br)cc3)no2)CCC1(c1ccc(F)cc1)c1ccc(F)cc1
B = O=C(CN1CCCC(c2ccccc2)(c2ccccc2)C1=O)N1CCC(=C(c2ccc(F)cc2)c2ccc(F)cc2)CC1
q: Would you mind telling me which has the lower recorded IC50 between A and B ? Let me know the label of the one you choose.
a: B
(B: 2450 nM, A: 6290 nM)

A = O=C1N(S(=O)(=O)c2cccc(C(F)(F)F)c2)CCC1(c1ccccc1)c1ccccc1
B = O=C(CN1CCCC(c2ccccc2)(c2ccccc2)C1=O)N1CCN(C(=O)OCc2ccccc2)CC1
q: Quick one: lower IC50, A or B ? Give the label of your selection.
a: B

1 = Nc1ccc(-c2noc(CN3CCC(c4ccccc4)(c4ccccc4)C3=O)n2)cn1
2 = O=C(CN1CCCC(c2ccccc2)(c2ccccc2)C1=O)N1CCC(Oc2ccc(Cl)cc2)CC1
q: Decide: 1 or 2 , by lowest recorded IC50. # reply format: chosen label
a: 2
